Assignment: determine reported inhibition for the given molecules.
biological target: Tubulin (Bos taurus) (UniProt Q6B856+Q862L2+Q862F3); experiment: Compound was evaluated for inhibition of colchicine binding to tubulin in experiment I.; type: protein assay; conditions: concentration not given here
Field format: number, assumed %, no unit text.

Value of measured inhibition for the entry CCOc1cc2c(cc1O)CCCC1C2CC[C@@]2(C)C1CC[C@@H]2O (some centres undefined) : 56

Value of measured inhibition for the entry COc1cc2c(cc1O)CC[C@@H]1[C@@H]2CC[C@]2(C)[C@@H](O)CC[C@@H]12 [2-METHOXYESTRADIOL] : 19

Value of measured inhibition for the entry CCOc1cc2c(cc1O)CC[C@@H]1[C@@H]2CC[C@]2(C)[C@@H](O)CC[C@@H]12 : 51

Value of measured inhibition for the entry CCOc1cc2c(cc1O)C(=O)C[C@@H]1[C@@H]2CC[C@]2(C)[C@@H](O)CC[C@@H]12 : 19
